B1: SMOC2 (parent)
chain: DCAGSPQKPLCASDGRTFLSRCEF

# Variants of: B1
# assay.remarks: protein stability index of a GFP-peptide fusion (GPS, HEK-293T) (PSI 1-6); higher = more stable;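 further: lentivirally expressed fusions sorted by FACS into six bins by GFP to DsRed ratio, PSI derived from sequencing read proportions per bin multiplied by bin number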
# test.conditions: c terminus: a fixed tail appended
quantity: protein stability index

## Task Which value of protein stability index has been reported for DCADSPQKPLCASDGRTFLSRCEF [G4D] in the records?
## Result 4.36

## Task So what does the record say about protein stability index for DCAGSPQKPLRASDGRTFLSRCEF [C11R] ?
## Result 2.28

## Task Look at this variant and give its reported protein stability index. DCAGSPQKPLCASDGRTFLSRAEF [C22A]
## Result 3.86

## Task Recorded protein stability index of DCAGSPQKPCCASDGRTFLSRCEF [L10C] , please.
## Result 2.85

## Task I am curious: what protein stability index value has been reported for DCAGSPQYPLCASDGRTFLSRCEF [K8Y] ?
## Result 1.9

## Task What protein stability index value was documented for this variant, DIAGSPQKPLCASDGRTFLSRCEF [C2I] ?
## Result 2.25

## Task Endpoint output: protein stability index of DCAGSPQKPLCASDGRTFLSVCEF [R21V] . Value?
## Result 2.65

## Task Returns the measured protein stability index for the input variant. Input: DCAGSPQKPLCASRGRTFLSRCEF [D14R]
## Result 2.03

## Task Form field: reported protein stability index of DCAGFPQKPLCASDGRTFLSRCEF [S5F]
## Result 1.72

## Task Please report the recorded protein stability index for DCAGSPQKPLCASDGRTMLSRCEF [F18M] .
## Result 4.01

## Task Tell me the measured protein stability index of DCAGDPQKPLCASDGRTFLSRCEF [S5D] , please.
## Result 2.96

## Task Which protein stability index is reported for this variant? DCAGSPQKPLCASDGRTFCSRCEF [L19C]
## Result 3.85

## Task Reported protein stability index, variant DCAVSPQKPLCASDGRTFLSRCEF [G4V] : ____
## Result 2.47

## Task Fill in the blank: the reported protein stability index of DCAGSPQKPLCASDGRTFLDRCEF [S20D] is ____.
## Result 4.1

## Task Endpoint output: protein stability index of DCAGSPQKPLCASDGRTFPSRCEF [L19P] . Value?
## Result 3.97

## Task protein stability index lookup needed for DCAGSPQKPLCASDGRTFLSRSEF [C22S] , thanks.
## Result 3.49

## Task protein stability index for LCAGSPQKPLCASDGRTFLSRCEF [D1L] ?
## Result 2.85

## Task Which measured protein stability index value corresponds to DCAGSPDKPLCASDGRTFLSRCEF [Q7D] ?
## Result 2.94

## Task Form field: reported protein stability index of DCAGSPQKPLCASDGATFLSRCEF [R16A]
## Result 2.99

## Task Report protein stability index for DCAGSPQKPLCASDGWTFLSRCEF [R16W] please.
## Result 1.72

## Task // protein stability index lookup, key: DCAGSPQKPLCASDFRTFLSRCEF [G15F]
## Result 2.42

## Task State the recorded protein stability index for this entry: DCAGSPQKPLCASDGRTFLSRCAF [E23A]
## Result 2.59

## Task Return reported protein stability index; argument: DCAGSPQKPLCASDGRTFLSRNEF [C22N]
## Result 4.36

## Task For DCAGSPQKPLCASDGRTFLSRYEF [C22Y] , what is its reported protein stability index?
## Result 3.67

## Task If you can, please state the reported protein stability index value of DCAGSPQIPLCASDGRTFLSRCEF [K8I] .
## Result 2.68

## Task Please look up its protein stability index: DCAGSPQKPLCASTGRTFLSRCEF [D14T]
## Result 2.82

## Task Fill blank: measured protein stability index of the variant DCAGSPQKPLCASDGMTFLSRCEF [R16M] is ____.
## Result 2.88

## Task Which protein stability index reading was recorded for the variant DCAGSPQKPLCASDGRTFLSHCEF [R21H] ?
## Result 3.26

## Task # query: protein stability index of entry DCAGSPQKPLCASDLRTFLSRCEF [G15L]
## Result 2.17

## Task Form field: reported protein stability index of DCAESPQKPLCASDGRTFLSRCEF [G4E]
## Result 3.83

## Task Query (variant): DRAGSPQKPLCASDGRTFLSRCEF [C2R] ; field requested: protein stability index
## Result 3.19

## Task If you can, please state the reported protein stability index value of DCAGSPQKPLCADDGRTFLSRCEF [S13D] .
## Result 3.16

## Task I'd like to know its protein stability index. The variant in question is DCAGSPQKPLCASDGKTFLSRCEF [R16K]
## Result 3.29

## Task Requested field: protein stability index. Item: DCAGSPQKPLCYSDGRTFLSRCEF [A12Y]
## Result 2.47

## Task # get_value(readout='protein stability index', item= DCAGSPQNPLCASDGRTFLSRCEF [K8N] )
## Result 2.3

## Task Which value of protein stability index has been reported for DCAGSPQKPLCAVDGRTFLSRCEF [S13V] in the records?
## Result 2.61

## Task What measured protein stability index goes with DCAGSPQKPLCASDGRTFASRCEF [L19A] ?
## Result 2.44

## Task Report protein stability index for DCAHSPQKPLCASDGRTFLSRCEF [G4H] please.
## Result 3.44

## Task Name the recorded protein stability index for DCAGSPQKPLCASDGRTFLSRCEN [F24N] .
## Result 3.93

## Task Form field: reported protein stability index of DCAGSPQKPLCASDGRQFLSRCEF [T17Q]
## Result 3.7

## Task Which protein stability index reading was recorded for the variant DCAGSPQKPLCASDGRCFLSRCEF [T17C] ?
## Result 2.04

## Task Any idea what its protein stability index is? The variant is DCAGSPQKPLCAHDGRTFLSRCEF [S13H]
## Result 2.29

## Task Look up protein stability index: DCAGSPQKPLCASDGRTHLSRCEF [F18H]
## Result 4.32

## Task Need protein stability index, item DCAGSPQKPLCASDGVTFLSRCEF [R16V]
## Result 2.77

## Task protein stability index lookup needed for DCAGSPQFPLCASDGRTFLSRCEF [K8F] , thanks.
## Result 3.62

## Task Endpoint output: protein stability index of DCAGSPQKRLCASDGRTFLSRCEF [P9R] . Value?
## Result 2.77

## Task Given NCAGSPQKPLCASDGRTFLSRCEF [D1N] , state its recorded protein stability index.
## Result 2.2

## Task Form field: reported protein stability index of DCAGSPQKPLPASDGRTFLSRCEF [C11P]
## Result 3.47

## Task # lookup: protein stability index of DCAGSPQKPLCASDGQTFLSRCEF [R16Q]
## Result 3.19

## Task Quick one: protein stability index for DCAKSPQKPLCASDGRTFLSRCEF [G4K] ?
## Result 2.65
